# target desc: UniProt:P29597
# Sequence (P29597 whole entry): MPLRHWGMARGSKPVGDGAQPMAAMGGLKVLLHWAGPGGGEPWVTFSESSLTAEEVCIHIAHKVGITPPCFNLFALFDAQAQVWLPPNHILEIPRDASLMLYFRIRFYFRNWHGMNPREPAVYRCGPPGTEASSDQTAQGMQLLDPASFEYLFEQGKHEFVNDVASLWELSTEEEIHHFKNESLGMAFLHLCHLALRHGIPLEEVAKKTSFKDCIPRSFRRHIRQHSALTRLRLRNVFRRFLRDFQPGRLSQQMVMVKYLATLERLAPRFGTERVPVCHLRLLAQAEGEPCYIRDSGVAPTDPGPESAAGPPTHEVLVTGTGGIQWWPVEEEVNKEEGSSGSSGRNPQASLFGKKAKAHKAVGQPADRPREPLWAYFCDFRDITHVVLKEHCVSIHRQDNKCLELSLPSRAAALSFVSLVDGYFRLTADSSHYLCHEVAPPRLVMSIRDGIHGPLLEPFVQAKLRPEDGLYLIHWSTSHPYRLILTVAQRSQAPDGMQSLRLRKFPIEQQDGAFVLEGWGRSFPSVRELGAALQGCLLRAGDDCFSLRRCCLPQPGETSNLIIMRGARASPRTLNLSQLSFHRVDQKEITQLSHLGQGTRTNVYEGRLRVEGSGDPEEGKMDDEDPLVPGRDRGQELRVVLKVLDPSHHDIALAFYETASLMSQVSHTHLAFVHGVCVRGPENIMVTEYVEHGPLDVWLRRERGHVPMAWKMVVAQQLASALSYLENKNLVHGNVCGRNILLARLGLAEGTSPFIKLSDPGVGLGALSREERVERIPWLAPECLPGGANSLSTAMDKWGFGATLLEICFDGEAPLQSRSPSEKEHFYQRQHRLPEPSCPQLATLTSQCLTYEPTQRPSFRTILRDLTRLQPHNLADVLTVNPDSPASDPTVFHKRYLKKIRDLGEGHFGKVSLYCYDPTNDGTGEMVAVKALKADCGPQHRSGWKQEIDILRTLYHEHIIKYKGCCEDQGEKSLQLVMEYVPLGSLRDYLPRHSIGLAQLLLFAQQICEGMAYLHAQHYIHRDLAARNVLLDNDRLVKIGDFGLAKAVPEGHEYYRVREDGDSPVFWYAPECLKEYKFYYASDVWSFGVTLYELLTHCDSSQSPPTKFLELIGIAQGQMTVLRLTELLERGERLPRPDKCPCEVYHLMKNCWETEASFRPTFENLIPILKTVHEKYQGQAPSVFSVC
# measurement description: TYK2 degradation MSD assay in EBV-B cells
# Assay type: cell-based
# Parameters: endogenous in cells; host or cells: EBV-B cells
# measurement setup: 4 to 24 hours incubation, read-out: TYK2 MSD DC50 rating in EBV-B
Measured DC50 by item

compound	DC50
COc1c(Nc2cc(Nc3cc(C(=O)NCCCCc4cccc5c4n(C)c(=O)n5C4CCC(=O)NC4=O)ccn3)ncc2C(=O)NC2CC2)cccc1-c1ncc(F)cn1 (stereo not drawn) [Example K179]	> 100 nM
CNC(=O)c1cnc(Nc2ccc(CN(C)C3CN(c4cccc5c4n(C)c(=O)n5C4CCC(=O)NC4=O)C3)cn2)cc1Nc1cccc(-c2ncc(F)cn2)c1OC (stereo not drawn) [Example K154]	> 100 nM

Now examine the next entry.
[ask] I would be grateful if you could share the reported DC50 for CNc1cc(Nc2cccn(-c3cc(C(=O)NCCOCCOCCOCCOCCOCCOCCc4ccc5c(c4)n(C)c(=O)n5C4CCC(=O)NC4=O)ccn3)c2=O)nn2c(C(=O)N[C@@H]3C[C@@H]3F)cnc12 (stereo partly drawn) [Example K245] .
[reply] > 100 nM
